species on record: Homo sapiens; assay: Selectivity for human dopamine D3 receptor over human 5HT2C receptor
result.type: Ratio Ki

| compound | result.type | data.value |
| --- | --- | --- |
| O=C(NC[C@H]1C[C@@H]1CN1CCN(c2cccc(Cl)c2Cl)CC1)c1ccc(-c2ccccn2)cc1 (relative stereo) | Ratio Ki | 79 |

a. O=C(NC/C=C/CN1CCN(c2cccc(Cl)c2Cl)CC1)c1ccc(-c2cccc(=O)[nH]2)cc1
b. O=C(NC/C=C/C[N+]1([O-])CCN(c2cccc(Cl)c2Cl)CC1)c1ccc(-c2ccccn2)cc1
c. O=C(NCC(O)CCN1CCN(c2cccc(Cl)c2Cl)CC1)c1ccc(-c2ccccn2)cc1 (centres undefined)
Problem: Descending sort on Ratio Ki required. Give the order by naming the labels one after another as requested.
Result: c, a, b
(c: 50, a: 18, b: 2)

###

target: D(2) dopamine receptor (Homo sapiens, UniProt P14416); assay: Displacement of [125I]IABN from human dopamine D2 receptor expressed in HEK293 cells
Sequence (P14416 whole entry): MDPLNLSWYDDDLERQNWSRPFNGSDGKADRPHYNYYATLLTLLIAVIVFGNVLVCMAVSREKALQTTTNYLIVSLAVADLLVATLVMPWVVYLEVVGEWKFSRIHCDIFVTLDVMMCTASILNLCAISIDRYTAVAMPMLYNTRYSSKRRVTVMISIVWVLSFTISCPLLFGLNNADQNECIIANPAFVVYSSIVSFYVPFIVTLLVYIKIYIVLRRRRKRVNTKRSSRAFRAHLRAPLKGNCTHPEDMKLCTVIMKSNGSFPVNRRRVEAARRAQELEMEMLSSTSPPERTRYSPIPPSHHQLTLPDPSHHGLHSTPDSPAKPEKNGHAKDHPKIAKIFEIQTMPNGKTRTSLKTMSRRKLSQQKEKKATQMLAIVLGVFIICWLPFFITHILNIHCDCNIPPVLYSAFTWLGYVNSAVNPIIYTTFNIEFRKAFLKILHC
result.type: pKi
Quick note: pKi values are minus log10 of concentrations in mol/L.

Problem: Kindly state the measured pKi obtained for O=C(NC[C@H]1C[C@@H]1CN1CCN(c2cccc(Cl)c2Cl)CC1)c1ccc(-c2ccccn2)cc1 (relative stereo) with D(2) dopamine receptor (Homo sapiens, UniProt P14416).
Result: 7.27

###

biological target: D(3) dopamine receptor (Homo sapiens, UniProt P35462)
Sequence (P35462 whole entry): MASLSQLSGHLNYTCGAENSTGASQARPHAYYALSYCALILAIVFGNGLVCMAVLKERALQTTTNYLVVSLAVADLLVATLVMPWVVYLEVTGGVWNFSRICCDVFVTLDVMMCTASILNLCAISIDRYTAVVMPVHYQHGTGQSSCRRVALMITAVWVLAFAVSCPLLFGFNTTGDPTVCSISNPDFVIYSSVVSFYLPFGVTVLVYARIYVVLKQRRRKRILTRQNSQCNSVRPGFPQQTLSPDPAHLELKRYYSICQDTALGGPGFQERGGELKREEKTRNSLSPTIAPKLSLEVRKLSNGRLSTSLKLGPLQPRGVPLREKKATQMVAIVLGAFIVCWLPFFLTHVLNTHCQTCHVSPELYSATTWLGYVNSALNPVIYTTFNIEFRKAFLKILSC
result.type: pKi
Quick note: pKi values are minus log10 of concentrations in mol/L.

Problem: Kindly state the measured pKi obtained for "COc1ccccc1N1CCN(CCCCNC(=O)c2ccc(-c3ccccn3)cc2)CC1" with D(3) dopamine receptor (Homo sapiens, UniProt P35462).
Result: 9.40

###

assay: Antagonist activity at human dopamine D3 receptor expressed in HEK293 cells by mitogenesis assay
result.type: IC50 (nM)
# unit: nM | format: bare number

Problem: I'd like to know its IC50. The compound in question is "O=C(NC/C=C/CN1CCN(c2cccc(Cl)c2Cl)CC1)c1ccc(-c2ccccn2)cc1"
Result: 3

###

organism: Homo sapiens; experiment: Selectivity for human dopamine D3 receptor over human 5HT1A receptor
result.type: Ratio Ki

| compound | data.value |
| --- | --- |
| O=C(NC/C=C/C[N+]1([O-])CCN(c2cccc(Cl)c2Cl)CC1)c1ccc(-c2ccccn2)cc1 | 14 |
| CC(=O)OC(CCNC(=O)c1ccc(-c2ccccn2)cc1)CN1CCN(c2cccc(Cl)c2Cl)CC1 (stereo not given) | 10 |
| O=C(NC/C=C/CN1CCN(c2cccc(Cl)c2Cl)CC1)c1ccc(-c2cccc[n+]2[O-])cc1 | 55 |
| O=C(NCCCCN1CCN(c2cccc(Cl)c2Cl)CC1)c1ccc(-c2ccccn2)cc1 | 59 |
| O=C(NCCC(O)CN1CCN(c2cccc(Cl)c2Cl)CC1)c1ccc2c(c1)Cc1ccccc1-2 (stereo not given) | 1010 |
| Cc1cccc(-c2ccc(C(=O)NC/C=C/CN3CCN(c4cccc(Cl)c4Cl)CC3)cc2)n1 | 221 |
| O=C(NC[C@H]1C[C@@H]1CN1CCN(c2cccc(Cl)c2Cl)CC1)c1ccc(-c2ccccn2)cc1 (relative stereo) | 59 |
| O=C(NC/C=C/CN1CCN(c2cccc(Cl)c2Cl)CC1)c1ccc2c(c1)Cc1ccccc1-2 | 627 |

A. O=C(NCCC(O)CN1CCN(c2cccc(Cl)c2Cl)CC1)c1ccc(-c2ccccn2)cc1 (stereo not given)
B. O=C(NC/C=C/CN1CCN(c2cccc(Cl)c2Cl)CC1)c1ccc(-c2ccccn2)cc1
C. O=C(NC/C=C/CN1CCN(c2cccc(Cl)c2Cl)CC1)c1ccc(-c2cccc(=O)[nH]2)cc1
D. O=C(NC[C@H]1C[C@H]1CN1CCN(c2cccc(Cl)c2Cl)CC1)c1ccc(-c2ccccn2)cc1 (relative stereo)
Problem: Hey, can you sort those compounds up there by Ratio Ki, smallest first? Give the order by naming the labels one after another as requested.
Result: D, A, C, B

a. Cc1cccnc1-c1ccc(C(=O)NC/C=C/CN2CCN(c3cccc(Cl)c3Cl)CC2)cc1
b. O=C(NCC(O)CCN1CCN(c2cccc(Cl)c2Cl)CC1)c1ccc(-c2ccccn2)cc1 (stereo not given)
Problem: Which one would you say has the larger Ratio Ki value: a , or b ? Identify your pick by its label.
Result: a

###

species: Homo sapiens; assay: Selectivity for human dopamine D3 receptor over human 5HT2A receptor
result.type: Ratio Ki

Before answering, review these 3 worked examples.
| molecule | result.type | data.value |
| --- | --- | --- |
| O=C(NCCC(O)CN1CCN(c2cccc(Cl)c2Cl)CC1)c1ccc2c(c1)Cc1ccccc1-2 (stereo not drawn) | Ratio Ki | 303 |
| O=C(NC[C@H]1C[C@@H]1CN1CCN(c2cccc(Cl)c2Cl)CC1)c1ccc(-c2ccccn2)cc1 (relative stereo) | Ratio Ki | 47 |
| Cc1cccnc1-c1ccc(C(=O)NC/C=C/CN2CCN(c3cccc(Cl)c3Cl)CC2)cc1 | Ratio Ki | 29 |

a. O=C(NCC(O)CCN1CCN(c2cccc(Cl)c2Cl)CC1)c1ccc(-c2ccccn2)cc1 (stereo not drawn)
b. O=C(NC[C@H]1C[C@H]1CN1CCN(c2cccc(Cl)c2Cl)CC1)c1ccc(-c2ccccn2)cc1 (relative stereo)
c. O=C(NC/C=C/CN1CCN(c2cccc(Cl)c2Cl)CC1)c1ccc(-c2cccc[n+]2[O-])cc1
Problem: Hey, can you sort those molecules up there by Ratio Ki, smallest first? Give the order by naming the labels one after another as requested.
Result: b, a, c

a. CC(=O)OC(CCNC(=O)c1ccc(-c2ccccn2)cc1)CN1CCN(c2cccc(Cl)c2Cl)CC1 (stereo not drawn)
b. O=C(NC/C=C/CN1CCN(c2cccc(Cl)c2Cl)CC1)c1ccc(-c2cccc(=O)[nH]2)cc1
Problem: Which one would you say has the larger Ratio Ki value: a , or b ? Identify your pick by its label.
Result: b
(b: 26, a: 7)

###

species on record: Homo sapiens; experiment: Selectivity for human dopamine D3 receptor over human 5HT2C receptor
result.type: Ratio Ki

| molecule | Ratio Ki |
| --- | --- |
| O=C(NCCC(O)CN1CCN(c2cccc(Cl)c2Cl)CC1)c1ccc(-c2ccccn2)cc1 (stereo unspecified) | 38 |
| O=C(NCCCCN1CCN(c2cccc(Cl)c2Cl)CC1)c1ccc(-c2ccccn2)cc1 | 132 |

1. Cc1cccc(-c2ccc(C(=O)NC/C=C/CN3CCN(c4cccc(Cl)c4Cl)CC3)cc2)n1
2. CC(=O)OC(CCNC(=O)c1ccc(-c2ccccn2)cc1)CN1CCN(c2cccc(Cl)c2Cl)CC1 (stereo unspecified)
Problem: Returns: the label, 1 or 2 , whose recorded Ratio Ki is the lower number. Identify your pick by its label.
Result: 2

A. O=C(NCCC(O)CN1CCN(c2cccc(Cl)c2Cl)CC1)c1ccc2c(c1)Cc1ccccc1-2 (stereo unspecified)
B. Cc1cccnc1-c1ccc(C(=O)NC/C=C/CN2CCN(c3cccc(Cl)c3Cl)CC2)cc1
C. O=C(NC/C=C/CN1CCN(c2cccc(Cl)c2Cl)CC1)c1ccc(-c2cccc[n+]2[O-])cc1
D. O=C(NC[C@H]1C[C@H]1CN1CCN(c2cccc(Cl)c2Cl)CC1)c1ccc(-c2ccccn2)cc1 (relative stereo)
Problem: Hey, can you sort those molecules up there by Ratio Ki, smallest first? Give the order by naming the labels one after another as requested.
Result: D, B, C, A

A. O=C(NC/C=C/CN1CCN(c2cccc(Cl)c2Cl)CC1)c1ccc2c(c1)Cc1ccccc1-2
B. COc1ccccc1N1CCN(CC(O)CCNC(=O)c2ccc(-c3ccccn3)cc2)CC1 (stereo unspecified)
Problem: Returns: the label, A or B , whose recorded Ratio Ki is the lower number. Identify your pick by its label.
Result: A
(A: 88, B: 1410)

###

target: D(2) dopamine receptor (Homo sapiens); experiment: Agonist activity at human dopamine D2 receptor expressed in HEK293 cells by mitogenesis assay; assay type: functional, cell-based
result.type: Activity (%)

Before answering, review these 3 worked examples.
| compound | target.or.system | Activity [%] |
| --- | --- | --- |
| O=C(NC[C@H]1C[C@@H]1CN1CCN(c2cccc(Cl)c2Cl)CC1)c1ccc(-c2ccccn2)cc1 (relative stereo) | D(2) dopamine receptor (Homo sapiens) | 17 |
| O=C(NCCCCN1CCN(c2cccc(Cl)c2Cl)CC1)c1ccc(-c2ccccn2)cc1 | D(2) dopamine receptor (Homo sapiens) | 20 |
| O=C(NCCC(O)CN1CCN(c2cccc(Cl)c2Cl)CC1)c1ccc(-c2ccccn2)cc1 (stereo not given) | D(2) dopamine receptor (Homo sapiens) | 26 |

P. O=C(NC/C=C/CN1CCN(c2cccc(Cl)c2Cl)CC1)c1ccc(-c2cccc[n+]2[O-])cc1
Q. COc1ccccc1N1CCN(CCCCNC(=O)c2ccc(-c3ccccn3)cc2)CC1
Problem: Returns: the label, P or Q , whose recorded Activity is the lower number. Identify your pick by its label.
Result: Q

###

target: D(4) dopamine receptor (Homo sapiens, UniProt P21917)
Sequence (P21917 whole entry): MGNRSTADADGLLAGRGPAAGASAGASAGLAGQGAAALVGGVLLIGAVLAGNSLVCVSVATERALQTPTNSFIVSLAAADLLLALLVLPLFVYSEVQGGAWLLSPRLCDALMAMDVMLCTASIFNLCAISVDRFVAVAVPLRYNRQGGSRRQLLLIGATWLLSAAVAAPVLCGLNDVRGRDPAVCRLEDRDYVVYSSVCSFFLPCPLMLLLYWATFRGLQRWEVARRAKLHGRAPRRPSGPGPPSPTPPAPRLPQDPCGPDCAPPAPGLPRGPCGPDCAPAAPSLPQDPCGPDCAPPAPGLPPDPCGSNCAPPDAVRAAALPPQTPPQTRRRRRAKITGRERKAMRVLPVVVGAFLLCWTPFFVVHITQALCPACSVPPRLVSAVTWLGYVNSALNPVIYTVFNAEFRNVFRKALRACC
pKi: −log10 of the molar value.
result.type: pKi

1. COc1ccccc1N1CCN(CCCCNC(=O)c2ccc3c(c2)Cc2ccccc2-3)CC1
2. O=C(NC[C@H]1C[C@H]1CN1CCN(c2cccc(Cl)c2Cl)CC1)c1ccc(-c2ccccn2)cc1 (relative stereo)
Problem: Which one would you say has the larger pKi value: 1 , or 2 ? Identify your pick by its label.
Result: 1

Source listed as ChEMBL document CHEMBL1148745.
